Test system: Moloney murine sarcoma virus
assay_procedure: Effective concentration against Moloney sarcoma virus
Type: functional, organism-based, Viruses
pEC50: −log10 of the molar value.
endpoint: pEC50

1. NCCCCCCCCCCNC(=O)[C@H]1NC(=O)[C@H]2NC(=O)[C@H](NC(=O)[C@@H]3NC(=O)[C@H](CC(N)=O)NC(=O)[C@H](N)[C@H](O)c4ccc(c(Cl)c4)Oc4cc3cc(c4O)Oc3ccc(cc3Cl)[C@H]2O)c2ccc(O)c(c2)-c2c(O)cc(O)cc21 :: 5.03
2. CN[C@H](CC(C)C)C(=O)N[C@H]1C(=O)N[C@@H](CC(N)=O)C(=O)N[C@H]2C(=O)N[C@H]3C(=O)N[C@H](C(=O)N[C@H](C(=O)O)c4cc(O)cc(O)c4-c4cc3ccc4O)[C@H](O)c3ccc(c(Cl)c3)Oc3cc2cc(c3O)Oc2ccc(cc2Cl)[C@H]1O :: 4.00
3. NC(=O)C[C@@H]1NC(=O)[C@H](N)[C@H](O)c2ccc(c(Cl)c2)Oc2cc3cc(c2O)Oc2ccc(cc2Cl)[C@@H](O)[C@@H]2NC(=O)[C@H](NC(=O)[C@@H]3NC1=O)c1ccc(O)c(c1)-c1c(O)cc(O)cc1[C@@H](C(=O)O)NC2=O :: 4.06
4. CN[C@H](CC(C)C)C(=O)N[C@H]1C(=O)N[C@@H](CC(N)=O)C(=O)N[C@H]2C(=O)N[C@H]3C(=O)N[C@H](C(=O)N[C@H](C(=O)NC4C5CC6CC(C5)CC4C6)c4cc(O)cc(O)c4-c4cc3ccc4O)[C@H](O)c3ccc(c(Cl)c3)Oc3cc2cc(c3O)Oc2ccc(cc2Cl)[C@H]1O (some centres not stated) :: 4.89
5. CN[C@H](CC(C)C)C(=O)N[C@H]1C(=O)N[C@@H](CC(N)=O)C(=O)N[C@H]2C(=O)N[C@H]3C(=O)N[C@H](C(=O)N[C@H](C(=O)NCC45CC6CC(CC(C6)C4)C5)c4cc(O)cc(O)c4-c4cc3ccc4O)[C@H](O)c3ccc(cc3)Oc3cc2cc(c3O)Oc2ccc(cc2Cl)[C@H]1O :: 4.92
6. NC(=O)C[C@@H]1NC(=O)[C@H](N)[C@H](O)c2ccc(c(Cl)c2)Oc2cc3cc(c2O)Oc2ccc(cc2)[C@@H](O)[C@@H]2NC(=O)[C@H](NC(=O)[C@@H]3NC1=O)c1ccc(O)c(c1)-c1c(O)cc(O)cc1[C@@H](C(=O)NC1C3CC4CC(C3)CC1C4)NC2=O (some centres not stated) :: 4.66

###

Test system: Enterococcus faecium
assay_procedure: Minimum inhibitory concentration against glycopeptide susceptible enterococci 568 Enterococcus faecium
Assay type: functional
endpoint: MIC (µg/mL)

1. CN[C@H](CC(C)C)C(=O)N[C@H]1C(=O)N[C@@H](CC(N)=O)C(=O)N[C@H]2C(=O)N[C@H]3C(=O)N[C@H](C(=O)N[C@H](C(=O)NCC45CC6CC(CC(C6)C4)C5)c4cc(O)cc(O)c4-c4cc3ccc4O)[C@H](O)c3ccc(cc3)Oc3cc2cc(c3O)Oc2ccc(cc2Cl)[C@H]1O :: 8
2. CN[C@H](CC(C)C)C(=O)N[C@H]1C(=O)N[C@@H](CC(N)=O)C(=O)N[C@H]2C(=O)N[C@H]3C(=O)N[C@H](C(=O)N[C@H](C(=O)NCCCCCCCCCCN)c4cc(O)cc(O)c4-c4cc3ccc4O)[C@H](O)c3ccc(cc3)Oc3cc2cc(c3O)Oc2ccc(cc2)[C@H]1O :: 8
